MEASUREMENT_PROTOCOL: Half life in Wistar rat at 1 mg/kg, iv
Format: ADME, organism-based
CONDITION_DESCRIPTION: in vivo
READOUT_NAME: half-life (h)
Field format: number, assumed h, no unit text.

Ask: For COc1ccc(S(=O)(=O)N2CCC[C@H]2C(=O)Nc2cc(C)cc(C)c2)cc1 , what is its reported half-life?
Result: 1.9

###

The listing below reports pIC50 for molecules tested on Cytochrome P450 3A4 (Homo sapiens).
Sequence (P08684 whole entry): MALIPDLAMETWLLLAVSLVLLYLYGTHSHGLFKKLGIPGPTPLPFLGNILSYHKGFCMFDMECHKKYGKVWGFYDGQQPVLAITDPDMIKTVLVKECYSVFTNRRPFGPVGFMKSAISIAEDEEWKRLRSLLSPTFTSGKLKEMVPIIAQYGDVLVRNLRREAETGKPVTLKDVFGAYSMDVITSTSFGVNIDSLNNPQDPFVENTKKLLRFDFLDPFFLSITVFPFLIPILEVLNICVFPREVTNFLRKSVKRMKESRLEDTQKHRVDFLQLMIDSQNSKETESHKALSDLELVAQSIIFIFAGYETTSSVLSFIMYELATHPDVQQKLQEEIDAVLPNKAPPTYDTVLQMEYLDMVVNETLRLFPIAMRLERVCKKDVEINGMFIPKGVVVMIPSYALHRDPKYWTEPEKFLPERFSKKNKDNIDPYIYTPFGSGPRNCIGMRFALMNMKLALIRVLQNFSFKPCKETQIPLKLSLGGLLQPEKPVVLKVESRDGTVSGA
Entry type: numeric. Quantity: pIC50, the -log10 of concentration in molar units.

- SMILES_INPUT: "COc1ccc(S(=O)(=O)N2CCC[C@H]2C(=O)Nc2cccc(SC)c2)cc1"
  TARGET_OF_ASSAY: "Cytochrome P450 3A4 (Homo sapiens)"
  pIC50: 5.10

Ask: For COc1ccc(CNC(=O)c2cc(-c3cncc(Cl)c3)cnc2-c2ccccn2)nc1OC , what is its reported pIC50?
Result: 4.55

###

MEASUREMENT_PROTOCOL: Clearance in iv dosed Beagle dog
Assay type: ADME, organism-based, Canis lupus familiaris
CONDITION_DESCRIPTION: in vivo
READOUT_NAME: clearance (mL/min/kg)
Field format: number, assumed mL/min/kg, no unit text.

Ask: For COc1ccc(CNC(=O)c2cc(-c3cncc(Cl)c3)cnc2-c2ccccn2)nc1OC , what is its reported clearance?
Result: 16

###

MEASUREMENT_PROTOCOL: Half life in human plasma at 1 to 1500 mg, po administered as single dose
Assay type: ADME, organism-based
READOUT_NAME: half-life (h)
Field format: number, assumed h, no unit text.

Ask: For COc1ccc(S(=O)(=O)N2CCC[C@H]2C(=O)Nc2cc(C)cc(C)c2)cc1 , what is its reported half-life?
Result: 10

###

MEASUREMENT_PROTOCOL: Oral bioavailability rhesus monkey
Type: ADME, organism-based, Macaca mulatta
CONDITION_DESCRIPTION: in vivo
READOUT_NAME: bioavailability
Answer as a quantity: numeral, then unit.

Ask: For COc1ccc(CNC(=O)c2cc(-c3cncc(Cl)c3)cnc2-c2ccccn2)nc1OC [MK-1064] , what is its reported bioavailability?
Result: 16%

###

MEASUREMENT_PROTOCOL: Half life in human plasma at 5 to 250 mg, po
Format: ADME, organism-based
READOUT_NAME: half-life (h)
Field format: number, assumed h, no unit text.

Ask: For COc1ccc(CNC(=O)c2cc(-c3cncc(Cl)c3)cnc2-c2ccccn2)nc1OC , what is its reported half-life?
Result: 1.6

###

MEASUREMENT_PROTOCOL: Oral bioavailability in dog
Type: ADME, organism-based, Canis lupus familiaris
CONDITION_DESCRIPTION: in vivo
READOUT_NAME: bioavailability (%)
Field format: number, assumed %, no unit text.

Ask: For Cc1ccc(-c2ncccn2)c(C(=O)N2C[C@H](COc3ccc(F)cn3)CC[C@H]2C)c1 , what is its reported bioavailability?
Result: 26

###

MEASUREMENT_PROTOCOL: Clearance in Beagle dog 1 mg/kg, iv
Type: ADME, organism-based, Canis lupus familiaris
CONDITION_DESCRIPTION: in vivo
READOUT_NAME: clearance (mL/min/kg)
Field format: number, assumed mL/min/kg, no unit text.

Ask: For COc1ccc(S(=O)(=O)N2CCC[C@H]2C(=O)Nc2cc(C)cc(C)c2)cc1 [ACT-462206] , what is its reported clearance?
Result: 11
